assayed.system: Carbonic anhydrase 2 (Homo sapiens) (UniProt P00918)
protocol.summary: compounds binding carbonic anhydrase 2 – biochemical, small-molecule microarray, Alexa647-labelled CAII, profiling panel (AID 1122)
study.conditions: CAII-A647 binding fluorescence, higher = more signal
Decision: composite z-score compared against 0.7; not below it gives Y, below it gives N.

Examples with answers:
Asked: Decide: composite z-score of Cc1ccc(C2C3C(=O)CC4C(=O)N(c5ccccc5)C(=O)C4C3CN2S(=O)(=O)c2ccc(C)cc2)cc1 (stereo not given) >= 0.7?
Given back: N

Asked: Reported composite z-score reaches at least 0.7 for CC1CC/C=C\[C@H]2OC34C=CCN(Cn5nnc6ccccc65)C(=O)[C@H]3N(CCCCCO)C(=O)[C@@H]4C2C(=O)O1 (stereo not given in full) ?
Given back: N

Asked: Would you say O=C1NC(=O)C2C1C=CC(C(O)C1CC=CCC1)N2Nc1ccccn1 (stereo not given) shows composite z-score at minimum 0.7?
Given back: Y

Asked: In plain terms: is recorded composite z-score at least 0.7 for COc1cc2c(cc1O)C(c1cccs1)N(Cc1cccc(OC(F)(F)F)c1)CC2 (stereo not given) ?
Given back: Y

Asked: Is composite z-score for O=C(O)C1N=C(c2ccc(OCCCO)cc2)N(c2ccccc2)O1 (stereo not given) at or above 0.7?
Given back: N

Continuing:
Asked: Given the entry `CN(C)CCCCCCNC(=O)[C@@H]1C[C@@H]2C(=O)N[C@@H](CCCC[N+](C)(C)C)C(=O)N2[C@@H]1c1ccc(O)cc1` , answer whether its composite z-score meets or surpasses 0.7.
Given back: Y

* * *

assayed.system: Albumin (Bos taurus)
protocol.summary: compounds binding labelled BSA control protein – biochemical, small-molecule microarray, Alexa647 label, 635/667 nm fluorescence, artefact control for SMM control protein annotation, profiling panel (AID 1118);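 also: score merges 667 nm emission intensity and signal-to-noise per printed compound spot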
study.conditions: BSA-A647 binding, fluorescence 635 nm, higher = more signal
Please respond with reported composite z-score for every item in the list.
Answers are plain numbers.

// solved cases for composite z-score follow
composite z-score reading for CS(=O)(=O)CCOC(=O)C1=CC(CCCO)=CC(c2ccc(CN3CCCC3)cc2)N(Cc2cccc(OC(F)(F)F)c2)C=C1C(=O)OCCS(C)(=O)=O (centres undefined) : 0.0883

Record summary for O=C1C2C=CC(C(O)c3ccc(-c4ccccc4)s3)N(Nc3ccccc3)C2C(=O)N1c1ccccc1 (centres undefined) : reported composite z-score = 0.931

Looking up `O=C1O[C@@H](c2ccccc2)[C@@H](c2ccccc2)N2[C@@H](c3ccc(OCCO)cc3)[C@]3(C(=O)Nc4ccc(C#CC5=CCCCC5)cc43)[C@@H](C(=O)N3CCCCCCC3)[C@H]12` , I see its composite z-score listed as 0.425

List reported composite z-score for each of these molecules:
1. COCCOC(=O)N1C(=O)[C@@]2(c3ccccc31)[C@H](C(=O)N1CCc3cc(OC)c(OC)cc3C1)[C@H]1C(=O)O[C@H](c3ccccc3)[C@H](c3ccccc3)N1[C@@H]2c1ccc(O)cc1
2. [N-]=[N+]=NCc1ccccc1[C@@H]1OC(c2ccc(OCCCO)cc2)=N[C@]1(CCS(=O)(=O)c1ccccc1)C(=O)N1CCCCC1
3. COC(=O)C(CC#Cc1ccc2c(c1)[C@]1(C(=O)N2)[C@H](c2ccccc2OCCO)N2[C@H](c3ccccc3)[C@H](c3ccccc3)OC(=O)[C@H]2[C@@H]1C(=O)O)C(=O)OC
4. CC(C)(C)OC(=O)CC[C@@]1(C(=O)N2CCCCC2)N=C(c2ccc(OCCCO)cc2)O[C@@H]1c1ccccc1

Given back:
1. 0.795
2. 0.997
3. 0.573
4. 0.962

Give composite z-score for all molecules that follow.
1. [N-]=[N+]=Nc1ccccc1C[C@]1(C(=O)NCC(O)CO)N=C(c2ccc(OCCCO)cc2)O[C@H]1c1ccccc1 (some centres undefined)
2. CC(C)[Si](C#CCCCC#N)(O[C@H](c1ccccc1)c1cn(Cc2cccc(Cl)c2)nn1)C(C)C

Given back:
1: 0.927; 2: 0.588

Cited source for all entries: PubChem BioAssay
